- METHOD DESCRIPTION: Size shrinkage of liposome after lyophilization
- Assay type: physicochemical
- CONDITION SUMMARY: 5% mannitol/10 mmol/L phosphate buffer
Ends that are not written are not given here. * marks the point of attachment. Palmitoyl = CCCCCCCCCCCCCCCC(=O)*
MEASURED ATTRIBUTE: degree of size shrinkage of the liposome after lyophilization

Some substances with known degree of size shrinkage of the liposome after lyophilization results, for comparison:
>  <SUBSTANCE>
1 (Palmitoyl-KSSQYIKANSKFIGITEAAAFLPSDFFPSVGGGDPRVRGLYFPA) [compound 1]

>  <RESULT>
++++

$$$$
>  <SUBSTANCE>
4 (Palmitoyl-KSSQYIKANSKFIGITEAAAFLPSDFFPSVGGGCTKPTDGNCT; cysteine pairing not given here) [compound 4]

>  <RESULT>
++

$$$$
>  <SUBSTANCE>
8 (PLGFFPDH; Hepatitis B virus) [compound 8]

>  <RESULT>
−

$$$$
>  <SUBSTANCE>
5 (Palmitoyl-KSSQYIKANSKFIGITEAAASIVSPFIPLLGGGDPRVRGLYFPA) [compound 5]

>  <RESULT>
+++

$$$$

Next substance, degree of size shrinkage of the liposome after lyophilization to be filled in.
What measured degree of size shrinkage of the liposome after lyophilization goes with 6 (QYIKANSKFIGITE; Th cell epitope from tetanus toxoid or variant species thereof) [compound 6] ?
+++
